Listed here: items and their measured inhibition.
Assay details: inhibitors of TNFa-induced NFkB p65 translocation, primary screen, imaging, HUVEC, MLSMR starter and 10KST1 sets (AID 438);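 note: compound added about 3h40 before a 20 min TNFalpha stimulation; signal is the nuclear over cytoplasmic p65 intensity ratio per well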
Run conditions: HUVEC TNFa-induced p65 nuclear translocation; at 2 µM, hits give high values, 0% TNFa-plus-vehicle, 100% no-TNFa wells
A number alone suffices; assume %.

See these solved cases before continuing.
| Compound | Metric name | Data value |
| --- | --- | --- |
| O=C(Nc1ccc2c(c1)OCO2)c1cncc(Br)c1 | inhibition | -11 |
| CN1c2ccccc2-c2nc3ccccc3n2C1c1ccco1 (stereo unspecified) | inhibition | -3.7 |

Fill in inhibition for record `CCCCNC(=O)c1c(N)n(/N=C/c2cccnc2)c2nc3ccccc3nc12`
4.9

In one line, give reported inhibition of the entry `COc1ccc(Oc2nc3c(c(=O)n(C)c(=O)n3C)n2Cc2cccc(OC)c2)cc1` .
-1.9

Please supply the value of reported inhibition for the item `CCCCC(=O)Nc1c(O)c2ccccc2[nH]c1=O`
1.5

Consider the compound `Cc1cc(C)nc(CC(N)=O)n1` . State its measured inhibition.
-3.1
